- test_name: yeast display, Sf9 membrane polyspecificity reagent, FACS + sequencing; frameworks hold sequencing errors
readout_label: polyreactivity (PSR sort gate)

Guide cases for polyreactivity (PSR sort gate), answers given:
Q: # query: polyreactivity (PSR sort gate) of entry `QVQLVDSGGGLVQAGGSLRLSCAASGRTIHYYAMGWYRQAPGKEREVVAVISSGGSTYYADSVKGRFTISRDNAKNTVYLQMNSLKPEDTAVYYCAALSSRTYKTGYYTYDYWGQGTQVTVSS`
Ans: low polyreactivity

Q: Now the same for `QVQLVESGGGLDQARGSLRLSCAASGFTFNYYAMGWYRQAPGKERELVAAISSSGGSTYYADSVKGRFTISRDNAKNTVYLQMNSLKPDDTAVYYCAAPVLPGYNYWGQGTQVTVSS`
Ans: high polyreactivity

Q: Now give it for `QVQLVESGGGLVQAGGSLRLSFAASGFTFYYYTMGWYRQEPGKERELVAGISRRRGSTRYADSVKGRFTISRDNAKNTVYLQMNSLKPEDTAVYYCAAYPVVTEFDYWGQGTQVTVSS` too.
Ans: high polyreactivity

Q: Also need `QVQLVESWGGLVLAGGRLRLSCAASGSTFPYNAMGWYRQAPGKERELVAVISQRGGSTYYADSLKGRFTISRDNAKNSVYLQMKSLKPEDTAVYYCAAEYIVTYGYDYWGQGTQVTVSS` , thanks.
Ans: high polyreactivity

Q: Lookup `QVQLVESGGCLVQAGGSLRLSCAASGSTFYLNAMGWYRQAPGKEREMVAAITVSGGSTYYADSVKGRFTISRDNAKNTVYLQMNSLKPVDTAVYFCSRELLCPTYQRWYYYWGLGTQVTVSS`
Ans: low polyreactivity

Q: Follow-up entry: `QVQLVDSGGGLVQAGGSLRLSCAASGITIPSYTMGWYRQGPGKERELVATIRNGGSTYYADSVKGRFTISRDNAKNTVYLQMNSLIPEDTAVYYCAAVPLWDYIFFYYLLYDYWGQGTQVTVSS`
Ans: low polyreactivity

Q: Would you kindly repeat that for `QVQLVESGGGLVQAGGSLRLSCAASGRTFDDYAMGRYRQAPGKERELVAVITDNGGGTNYADSVKGRFTISRDNAKNTVYLQMNSLKPEDTAVYYCNAASDDFYPGRRTYGRDYWGQGTQVTVSS` ?
Ans: low polyreactivity

Q: Lookup `QDQLVESGGGLVQAGGSLRLSCAASGRIFYPNAMGWYRQAPGKERELVASISRGGPTSYADSVKGRFTISRDNAKNTVYLQMNSLKPEDTAVYYCAADVAWYRYRSYYWGQGTQVTVSS`
Ans: high polyreactivity

More entries:
Q: Fill in the blank: the reported polyreactivity (PSR sort gate) of `QVKLVESGGGLVQAGGSLRLSCAASGSTLYQYTMGWYRQAPGKERELVAGISRRGGSTYYAYSVKGRFTISRDNAKNTVYLQMNSLKPEDTAVYYCAKRPHYIAWYGYNGDYWGQGTQVTVSS` is ____.
Ans: high polyreactivity

Q: Lookup `QVQLVESGGGLVQAGGSLPLSCAASGLTLYGNAMGWYRQAPAKEREMVADISLSGGRTFYADSVKGRFTITRDNAKNTVYLQMNSLKPEDTAVYYCAAVCRTGWYYEYYHWGQGSQVTVSS`
Ans: low polyreactivity

Q: Query `QVQLVESGGGLVQAGGSLRLSCAASGSTLYHSTMGWYRKAPGKETELVAAITWSGGSTSYADSVKGRFTISRDNAKNTVYLQMNSLKPEDTAVYYCAADDTPDDSDYWGQGTQVTVSS` next
Ans: low polyreactivity
